Recorded values, source patent US8895552B2.

Biological target: 11βHSD1 (Homo sapiens, UniProt P28845)
Sequence (P28845 whole entry): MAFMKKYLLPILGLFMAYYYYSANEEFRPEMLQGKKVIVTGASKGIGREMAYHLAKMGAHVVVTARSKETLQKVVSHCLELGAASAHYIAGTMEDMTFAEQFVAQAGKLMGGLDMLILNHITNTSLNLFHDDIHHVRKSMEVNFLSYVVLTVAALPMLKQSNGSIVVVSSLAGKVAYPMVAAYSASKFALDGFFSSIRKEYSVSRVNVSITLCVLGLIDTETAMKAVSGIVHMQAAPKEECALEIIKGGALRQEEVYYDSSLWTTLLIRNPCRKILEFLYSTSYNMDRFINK
Test: Inhibitory activity assay against cortisone reducing activity of cultured human adipocytes
Conditions: differentiated normal human preadipocytes (HPrAD-vis), 100 nM [1,2-3H] cortisone, 37° C., read-out: IC50 against cortisone reducing activity of human adipose cell
Method: Experiment 1: Inhibitory Activity Assay Against Cortisone Reducing Activity of Cultured Human Adipocytes Normal human preadipocytes (HPrAD-vis, manufactured by Cambrex corporation) were inoculated onto a 48-well cell culture plate, and the differentiation induction was carried out according to Protocol attached to the kit. […] The inhibitory activity of a test compound against cortisone reducing activity was calculated according to the following equation. […]
Field: pIC50. Provide a value for each of the compounds that follow.
Give bare numbers, as −log10 of the molar value.

Some compounds with known pIC50 results, for comparison:
Cc1cc(C(=O)c2cccn2C)sc1C(=O)NC1C2CC3CC1CC(O)(C3)C2 (stereo not drawn)    8.37
CCc1cc(C(=O)c2cccc(F)c2F)n(C)c1C(=O)NC1C2CC3CC1CC(O)(C3)C2 (stereo not drawn)    8.38
COCc1cc(C(=O)c2ccccn2)ccc1C(=O)NC1C2CC3CC1CC(O)(C3)C2 (stereo not drawn)    8.02
CCc1cc(C(=O)c2ccc(F)cc2)ccc1C(=O)NC1C2CC3CC1CC(O)(C3)C2 (stereo not drawn)    8.52
CCc1cc(C(=O)c2cccc(OC)c2F)n(C)c1C(=O)NC1C2CC3CC1CC(O)(C3)C2 (stereo not drawn)    8.55
Cn1c(C(=O)c2cccc(F)c2)cc(Cl)c1C(=O)NC1C2CC3CC1CC(O)(C3)C2 (stereo not drawn)    8.82
CCn1nccc1C(=O)c1ccc(C(=O)NC2C3CC4CC2CC(O)(C4)C3)c(COC)c1 (stereo not drawn)    8.43
COCCc1cc(C(=O)c2ccccc2F)ccc1C(=O)N[C@H]1C2CC3CC1C[C@](O)(C3)C2    8.85
O=C(c1ccc(C(=O)NC2C3CC4CC2CC(O)(C4)C3)c(Cl)c1)c1ccccc1F (stereo not drawn)    8.44
O=C(Cc1ccccc1)c1ccc(C(=O)N[C@H]2C3CC4CC2C[C@](O)(C4)C3)c(Cl)c1    7.92

Please give pIC50, item by item, for the list that follows.
1. CCc1cc(C(=O)C2(c3ccccc3)CCC2)n(C)c1C(=O)NC1C2CC3CC1CC(O)(C3)C2 (stereo not drawn)
2. Cn1cccc1C(=O)c1ccc(C(=O)N[C@H]2C3CC4CC2C[C@](O)(C4)C3)c(Cl)c1

Result:
8.14
7.80
